A collection of compounds and their measured RFP signal change
assay info: GFP drop in mixed WT/humanized-ribosome E. coli culture – GFP/RFP fluorescence, OD600, single point, bacterial rRNA inhibitor project, primary screen (AID 720706)
run conditions: E. coli WT GFP vs humanized-ribosome RFP mutants, 24 h; measured here: RFP humanized mutant strains, DMSO median 0, no signal -100, concentration not given here
In all, about 350,000 compounds went through this assay and about 5,500 (1.6%) were called active. The sample as a whole holds a higher share of actives than the screen did.
reported metric: RFP signal change (%)

>>> value_reported("Cc1ccc(S(=O)(=O)Nc2ccc3c(c2)C(=O)N([C@@H](C)CO)C[C@H](C)[C@@H](CN(C)S(=O)(=O)c2ccc(C)cc2)O3)cc1")
1.47
>>> value_reported("Cc1ccc2sc(NNC(=O)c3ccc4c(c3)OCCO4)nc2c1C")
7.46
>>> value_reported("COCCNc1nc(Nc2ccccc2Cl)c2sc(-c3ccccc3)cc2n1")
-2.05
>>> value_reported("O=C(NNS(=O)(=O)c1ccccc1)c1cnn(-c2ccc(Cl)cc2)c1C(F)(F)F")
3.85
>>> value_reported("COc1ccc(NC(=O)Nc2ccc3c(c2)C(=O)N([C@H](C)CO)C[C@@H](C)[C@H](CN(C)CC2CCCCC2)OCCCC[C@@H](C)O3)cc1")
2.56
>>> value_reported("O=C(NCCCN1CCN(c2ccc(F)cc2)CC1)Nc1ccc([N+](=O)[O-])cc1")
9.67
>>> value_reported("Cn1nc(-c2ccc(Cl)cc2)c2cc(C(=O)NCc3ccco3)sc21")
-16.6
>>> value_reported("C[C@@H]1CN([C@@H](C)CO)S(=O)(=O)c2ccc(Br)cc2O[C@@H]1CN(C)C(=O)C1CCCCC1")
0.015
>>> value_reported("CCN(CC)CCN(C(=O)c1cc(Cl)sc1Cl)c1nc2cc3c(cc2s1)OCO3")
-0.673
>>> value_reported("C[C@@H]1CN([C@H](C)CO)C(=O)c2cc(NC(=O)NC3CCCCC3)ccc2O[C@H]1CN(C)C(=O)Nc1ccccc1")
2.7
>>> value_reported("Cc1ccccc1-c1cc(C(=O)NCc2cccs2)n(CC2CC(c3cccnc3)=NO2)n1 (stereo unspecified)")
5.68
>>> value_reported("COCCNc1nc(NCc2ccc(NC(C)=O)cc2)c2sccc2n1")
6.28
>>> value_reported("CCOC(=O)N1CCN(C(=O)c2cc3c(-c4ccc(Cl)cc4)nn(C)c3s2)CC1")
-5.96
>>> value_reported("COc1ccc(C#Cc2ccc([C@H]3[C@H]4CN(C(=O)c5cccnc5)CC(=O)N4[C@H]3CO)cc2)cc1")
2.11
>>> value_reported("CC(C)NC(=O)Nc1ccc2c(c1)C(=O)N(C)[C@@H]1CC[C@H](CC(=O)NCC3CCCCC3)O[C@@H]1CO2")
0.584
>>> value_reported("O=C(COC(=O)c1ccc([N+](=O)[O-])o1)NC12CC3CC(CC(C3)C1)C2")
3.52
>>> value_reported("COc1ccc(CNC(=O)C[C@@H]2C=C[C@@H](NC(=O)c3ccc4c(c3)OCO4)[C@@H](CO)O2)cc1")
-0.879
>>> value_reported("CCN(CC)C(=O)C(=O)Nc1cccc(Br)c1")
-1.36
>>> value_reported("CCN(CC)CCN(C(=O)c1ccc(N2C(=O)CCC2=O)cc1)c1nc2cc3c(cc2s1)OCO3")
-4.79
>>> value_reported("O=C(NCCCN1CCOCC1)c1ccc([N+](=O)[O-])cc1[N+](=O)[O-]")
-0.35
>>> value_reported("CCC(=O)N(C)C[C@@H]1Oc2cc(C#CCOC)ccc2S(=O)(=O)N([C@@H](C)CO)C[C@@H]1C")
-0.769
>>> value_reported("CCCNC(=O)N(C)C[C@H]1Oc2ncc(-c3cccc(C#N)c3)cc2C(=O)N([C@@H](C)CO)C[C@@H]1C")
4.15
>>> value_reported("CN(C)C(=O)c1cccc(-c2ccc([C@H]3[C@H](CO)N4C(=O)CN(C(=O)Cc5ccccc5)C[C@@H]34)cc2)c1")
5.77
>>> value_reported("O=C(C[C@@H]1CC[C@@H]2[C@H](COC[C@H](O)CN2S(=O)(=O)c2ccc(F)cc2)O1)NCc1ccc(Cl)c(Cl)c1")
0.781
>>> value_reported("C[C@H]1CN([C@@H](C)CO)C(=O)CCCn2nncc2CO[C@H]1CN(C)Cc1ccc2c(c1)OCO2")
0.27
>>> value_reported("CCCOc1ccc(F)cc1-c1cc(C(=O)Nc2ccc(F)c(Cl)c2)[nH]n1")
8.72
>>> value_reported("CN(C)CCCN(C(=O)c1ccc(S(=O)(=O)N2CCCCCC2)cc1)c1nc2cc3c(cc2s1)OCCO3")
0.23
>>> value_reported("O=C1[C@H](Cc2ccc(C(F)(F)F)cc2)CCn2nncc2COC[C@@H]2CCCCN12")
-0.899
>>> value_reported("CCOC(=O)C1=C(N)N(c2ccc(C)cc2)C2=C(C(=O)CCC2)C1c1cccs1 (stereo unspecified)")
0.496
>>> value_reported("Cc1ccc(S(=O)(=O)N(C)C[C@@H]2Oc3ccc(NS(=O)(=O)c4cccs4)cc3C(=O)N([C@@H](C)CO)C[C@H]2C)cc1")
1.46
>>> value_reported("NNC(=O)c1cnn(-c2ccccc2)c1C(F)(F)F")
-0.665
>>> value_reported("CN(C)CCN(C(=O)C1=COCCO1)c1nc2ccc(Cl)cc2s1")
-1.96
>>> value_reported("CCOc1ccc2nc(C(=O)N3CCCC(C)C3)sc2c1 (stereo unspecified)")
-0.532
>>> value_reported("CCS(=O)(=O)N1Cc2cc(C(=O)N(C)C)nc(-c3cccc(-c4ccc(C#N)cc4)c3)c2[C@H]1CCO")
0.491
>>> value_reported("CCN(CC)CCN(C(=O)c1ccc2c(c1)CCCC2)c1nc2c(OC)cccc2s1")
-16.6
>>> value_reported("COCC(=O)N1CC(=O)N2[C@H](CO)[C@@H](c3ccc(C#CC4CCCCC4)cc3)[C@@H]2C1")
13.9
